- assayNotes: NCI Yeast Anticancer Drug Screen. Data for the mlh1 rad18 strain (AID 175)
- settings: S. cerevisiae mlh1 rad18 strain growth inhibition; at 5.0 µM (retest, dose inferred, filed as 0.5); hits give high values
This is part of a sample that, as a whole, favours compounds with a hit. Of some 79,000 tested, about 15% had one in any assay.
measuredEndpoint: growth inhibition (%)
Give bare numbers, in %.

Example compounds with recorded growth inhibition:
O=C(CN1CCCC1)Nc1nc(-c2ccc(Cl)cc2)cs1; 65
CCCCCCCCCCCCNCC(=O)O; 3
COC(O)C12OC3CO[Si](C(C)C)(C(C)C)O[Si](C(C)C)(C(C)C)OC3C1Oc1nc(=O)ccn12 (stereo unspecified); 15
COc1ccc2ccccc2c1/C=C/C(=O)c1ccccc1; 1
CCOC(=O)C1=C(C)NC(=O)NC1c1coc2cc(C)cc(C)c2c1=O (stereo unspecified); 0

Fill in growth inhibition for each of the 3 compounds listed.
1. Oc1cc2c(cc1C(c1ccc(Cl)cc1)N1CCOCC1)OCO2 (stereo unspecified)
2. Cc1ccc(N2C(N)=C(C#N)C(C#N)(C#N)C2c2ccccc2)cc1 (stereo unspecified)
3. Cc1nc2ccc(NCCN(C)C)c3c(=O)c4cc(O)ccc4n1c23

Response:
0
25
-3

###

- assayNotes: NCI Yeast Anticancer Drug Screen. Data for the rad50 strain (AID 155);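 note: 0% = growth of vehicle-only cultures of the same strain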
- settings: S. cerevisiae rad50 strain growth inhibition; at 5.0 µM (retest, dose inferred, filed as 0.5); hits give high values
Compounds without any hit were thinned out: in the full panel of roughly 79,000, 15% have a hit.
Field: growth inhibition. Provide a value for each of the compounds that follow.
Give bare numbers, in %.

// known answers, use as guide
Cc1ccc(N=Nc2c(-c3ccccc3)nn(C(=S)S)c2-c2ccccc2)cc1; 8
NC(=S)C1CCC(C2CCCCC2)CC1 (stereo not given); 5
CC(=O)c1c2c(cc3c1CC1(Cc4ccccc4C1=O)C3)CCC2 (stereo not given); -4
CC1COC(c2cn[nH]c2C(N)=O)C1O (stereo not given); -7

Working through the 2 compounds below one at a time, give growth inhibition for each.
1. CC(CC(C#CCN(C)C)N(C)C)CC(C)(C)C (stereo not given)
2. Cc1ccccc1P(=O)(c1ccccc1C)c1ccccc1C

Response:
1. 22
2. 16

###

- assayNotes: NCI Yeast Anticancer Drug Screen. Data for the sgs1 mgt1 strain (AID 161);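 note: 0% = growth of cultures given vehicle only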
- settings: S. cerevisiae sgs1 mgt1 strain, at 50.0 µM (retest, dose inferred, filed as 5.0), hits give high values
About 79,000 compounds went through this panel and 15% of them were active in at least one assay; those are over-represented in the sample as a whole.
Assignment: determine reported growth inhibition for the given molecules.
Numbers only, in %.

Cc1ccc2c(c1)C1C(CC2)C2C(=O)OC(=O)C2C2CCc3ccc(C)cc3C21 (stereo unspecified); 99
CN=c1sc2c(n1C)C(=O)c1ccccc1C2=O; 49
Cc1ccc(N2C(=O)C(C)SC2=S)cc1Cl (stereo unspecified); -25
Cc1cccc(Cc2cccc(Cl)c2)c1O; 89
O=C(OCc1ccc2c(c1)OCO2)c1ccc(Cl)cc1; 46
O=[N+]([O-])c1cccc2nc3ccccc3c(NCCNCCO)c12; 99
CN(C)c1ccc(/C=N/N=C(/C#N)[S][Sn]([S]/C(C#N)=N/N=C/c2ccc(N(C)C)cc2)([c]2ccccc2)[c]2ccccc2)cc1; 92
CC(C)c1ccc(O)c(Cc2cc(C(C)C)ccc2O)c1; 99
CC1OC(Oc2c(-c3ccc(O)c(O)c3O)oc3cc(O)ccc3c2=O)C(O)C(O)C1O (stereo unspecified); 8
O=C1C=C(c2ccccc2)OC(c2ccccc2)C1 (stereo unspecified); -37

Prompt: Please report the recorded growth inhibition for SCCCCCCCCCCS .
Response: 89

###

- assayNotes: NCI Yeast Anticancer Drug Screen. Data for the cln2 rad14 strain (AID 165);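 note: 0% = growth equal to vehicle treated cultures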
- settings: S. cerevisiae cln2 rad14 strain, at 50.0 µM
Compounds without any hit were thinned out: in the full panel of roughly 79,000, 15% have a hit. Active and inactive are the calls of the source. No stated cut-off is given here; in the data, active means growth inhibition above about 70%; inactive means the rest.
Please state which outcome applies, choosing from active, inactive

COc1ccc(I)c(C=NC2CCCCC2)c1C; inactive
CC1(C)C(=O)C(C(Cl)(Cl)Cl)=C(Cl)C(=O)C1(Cl)Cl; inactive
CCCCCCCCCCCC(=O)OCC1CO1 (stereo unspecified); inactive
O=C(Cc1csc2[n+]1C(=O)/C(=C/c1cccc([N+](=O)[O-])c1)S2)Nc1ccccc1; inactive
COc1ccccc1NC(=O)Oc1ccc(C(C)(CCC(=O)O)c2ccc(OC(=O)Nc3ccccc3OC)cc2)cc1; inactive

Prompt: So what was the verdict on CCCCCCCCCCCCCCCCCC(=O)Nc1ccn(C2OC(CO)C(O)C2O)c(=O)n1 (stereo unspecified) in this test?
Response: active

Prompt: Dear all, I need the recorded test outcome for Cc1ccc(S(=O)(=O)S/C(=N\c2ccccn2)Nc2ccccn2)cc1 , thank you.
Response: inactive

Prompt: # fetch the recorded call for NC(=S)N/N=C1\CCCCc2ccccc21 here
Response: active

###

- assayNotes: NCI Yeast Anticancer Drug Screen. Data for the mlh1 rad18 strain (AID 175)
- settings: S. cerevisiae mlh1 rad18 strain growth inhibition; at 5.0 µM (retest, dose inferred, filed as 0.5); hits give high values
This is part of a sample that, as a whole, favours compounds with a hit. Of some 79,000 tested, about 15% had one in any assay.
For each entry below, report its growth inhibition value.
Answers are plain numbers, in %.

// batch mode: one growth inhibition value per listed entry
1. N#CCCN(CCC#N)Cc1cc(-c2ccccc2)ccc1O
2. Cc1ccc(NC(=S)SCc2ccc(Cl)cc2)cc1Cl

Response:
1. -9
2. 23

I would be grateful if you could provide growth inhibition for each of the following entries.
1. CC(NC(=O)C(Cc1ccccc1)NC(=O)c1ccc[n+](Cc2ccccc2)c1)C(N)=O (centres undefined)
2. CC(=O)OCC1OC(n2c(O)c(N=NC(N)=S)c3ccc([N+](=O)[O-])cc32)C(OC(C)=O)C1OC(C)=O (centres undefined)
3. O=C1OC(=O)c2ccc([N+](=O)[O-])c3cccc1c23
4. C#CC(CC(C)CC(C)(C)C)NC (centres undefined)
5. Cc1c(O)ccc2c1OCC(c1ccc(Cl)cc1)C2 (centres undefined)
6. c1ccc2c(c1)CCCc1cc3ccccc3nc1-2
7. Nc1nnc(-c2cc(=O)c3cc(Cl)ccc3o2)s1

Response:
1. -1
2. -1
3. 0
4. 1
5. -10
6. -36
7. -1

Report growth inhibition for each item below.
1. Oc1c(Br)cc(Br)c2cccnc12
2. Cc1ccc(C2(c3ccc(F)cc3)OC(=O)c3ccccc32)c(O)c1 (centres undefined)
3. COC(=S)S
4. O=C(NCCc1c(-c2ccccc2)[nH]c2ccccc12)C(F)(F)C(F)(F)F
5. Cc1nn(-c2ccc(S(=O)(=O)[O-])cc2)c([O-])c1N=[N+](C)c1ccc(-c2ccc(N=Nc3ccc4c(S(=O)(=O)[O-])cc(S(=O)(=O)[O-])c(N)c4c3[O-])c([O-])c2)cc1[O-].[Cu+2].[Cu+2].[Na+]
6. Brc1ccc(C2c3ccccc3-c3ccccc32)cc1
7. COc1ccc2nc3cccc([N+](=O)[O-])c3c(NCCN(C)C)c2c1

Response:
1. 96
2. 27
3. 1
4. 23
5. -9
6. -4
7. 92

###

- assayNotes: NCI Yeast Anticancer Drug Screen. Data for the mec2-1 strain (AID 157)
- settings: S. cerevisiae mec2-1 strain, at 5.0 µM (retest, dose inferred, filed as 0.5)
- Method: Growth inhibition of yeast strains with defined genetic alterations is measured as a screen for potential anti-cancer activity. Selected strains with alterations in DNA damage repair or cell cycle control were exposed to compounds and growth inhibition was measured relative to vehicle treated controls. The strain used in this assay is mec2-1
Compounds without any hit were thinned out: in the full panel of roughly 79,000, 15% have a hit. Activity calls are given as the source filed them. No stated cut-off is given here; in the data, active means growth inhibition above about 70%; inactive means the rest.
API: response.call in Yes (active), No (inactive)

Recorded results for 3 compounds are shown here.
CC1C(c2ccc(Cl)cc2)c2cc3c(cc2OC1N1CCOCC1)OCO3 (stereo not given); No
CCCCCCN(CCCCCC)CCCCCC; No
O=C1c2ccc(O)cc2C(=O)c2c1ccc(O)c2O; No

Prompt: Hi, do you know how CN1C(=O)OC(C)(c2ccccc2)C1=O (stereo not given) came out in this test?
Response: No

Prompt: Test call, this compound: O=C1c2c(Br)sc(Br)c2[C@@H](NC(=O)C(F)(F)F)C1Br (stereo not given in full)
Response: No

Prompt: Record request — test call for O=C(/C=N/O)c1c(-c2ccccc2)[nH]c(-c2ccccc2)c1-c1ccccc1
Response: No

Prompt: Please state the recorded outcome for this compound: COc1ccc(OC)c(NC(=O)CCCC(=O)CC(=O)c2cccnc2)c1
Response: No

Prompt: Answer briefly: the call reported for O=[N+]([O-])/C(=C\c1cccs1)c1ccccc1 in this assay.
Response: Yes

Prompt: # outcome recorded in this test, key = CCC(COS(=O)(=O)c1ccc(C)cc1)(COS(=O)(=O)c1ccc(C)cc1)COS(=O)(=O)c1ccc(C)cc1
Response: No

Prompt: Write down the call the test reported for this compound. Item: O=C(NCCCN1CCN(CCCNC(=O)c2cc(-c3ccccc3)nc3ccccc23)CC1)c1cc(-c2ccccc2)nc2ccccc12
Response: No

Prompt: Please share the test call associated with C=CCNC(=S)N/N=C/c1nccc(-c2ccccc2)c1C .
Response: No

Prompt: Query: recorded result category for CCCCCCCOc1ccc(C=O)cc1OC in this test
Response: No
